Reference for the values: PubChem BioAssay (NCATS)

- test-method-notes: AP1 Signaling Pathway (AID 357);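 note: ME-180 reporter cells stimulated with EGF at its EC50 level; % is set by controls: 0 for no effect and ±100 for the full control effect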
- setup-conditions: ME-180 (cervical carcinoma) AP-1-bla reporter, EGF-induced, beta-lactamase ratio, 5 h; at 7.69 µM (top of the series) unless noted
- Procedure: NCGC Assay Overview: Activator protein-1 (AP-1), a transcription factor, plays an important role in tumor genesis by regulating genes involved in cell proliferation, differentiation, apoptosis, and angiogenesis. AP-1 activity is induced by a complex network of signaling pathways that involves extracellular signals, such as growth factors. […] Library compounds were measured for their ability to modulate positively or negatively the action of EC50 EGF on reporter gene activity. […]
Records with an inconclusive call do not appear.
Give activity change, negative = inhibition for every item shown.
# value in %; strip the unit string

Task item: What does the record list as activity change, negative = inhibition for `Cc1nc2cnc(Oc3ccccc3)nc2n(C)c1=O` ?
Reply: -8.04

Task item: For `COc1ccc(NC(=O)N2CC3(CCN(C(=O)c4c(C)noc4C)CC3)C2)cc1` , what is its reported activity change, negative = inhibition?
Reply: 4.05

Task item: Quick one: activity change, negative = inhibition for `O=C(c1ccco1)N1CCC2(CCCN(C(c3ccccc3)c3ccccc3)C2)CC1` ?
Reply: 26.1

Task item: Look at this molecule and give its reported activity change, negative = inhibition. `O=c1cnc2cnc(Nc3ccccc3)nc2n1C1CC1`
Reply: -23.3

Task item: Give the measured activity change, negative = inhibition of `CN(C)c1ccnc(-c2ccccc2C(F)(F)F)n1` .
Reply: 24.2

Task item: # query: activity change, negative = inhibition of entry `CN(C)c1ncc2nc(-c3cc(F)cc(F)c3)c(=O)n(C[C@H]3CCCO3)c2n1`
Reply: 19.6

Task item: # get_value(readout='activity change, negative = inhibition', item= `Cc1noc(C)c1-c1nccc(-n2ccnc2)n1` )
Reply: 3.6

Task item: Endpoint output: activity change, negative = inhibition of `O=S(=O)(c1ccccc1)N1CCC2(CC1)CN(c1ncccn1)C2` . Value?
Reply: -2.52

Task item: Could you share which activity change, negative = inhibition value was measured for `Cc1noc(C)c1-c1cc(Nc2ccc(F)cc2)ncn1` ?
Reply: -7.8

Task item: What measured activity change, negative = inhibition goes with `O=C(c1ccco1)N1CCC[C@@]2(CCN(c3ccncc3)C2)C1` ?
Reply: 0.424

Task item: For `O=C(Nc1ccccc1)N1CC2(CCN(C(=O)c3ccco3)CC2)C1` , what is its reported activity change, negative = inhibition?
Reply: -2

Task item: Which activity change, negative = inhibition value belongs to `Cn1cc(-c2nc3cnc(N4CCNCC4)nc3n(C)c2=O)c2ccccc21` ?
Reply: 4.46

Task item: Item `COCCNc1ncnc2ccc(-c3cccc(NS(C)(=O)=O)c3)cc12` has what recorded activity change, negative = inhibition?
Reply: -19.3

Task item: Consider the molecule shown here: `CCNc1ncc2nc(C)c(=O)n(C)c2n1` What is its recorded activity change, negative = inhibition?
Reply: -6.84

Task item: What measured activity change, negative = inhibition goes with `O=c1c(-c2cccs2)nc2cnc(N3CCOCC3)nc2n1Cc1ccc(F)cc1` ?
Reply: 27.4

Task item: Returns the measured activity change, negative = inhibition for the input molecule. Input: `COCCn1c(=O)cnc2cnc(N3CCN(C)CC3)nc21`
Reply: -13.3

Task item: // lookup activity change, negative = inhibition for `CN(C)C(=O)c1ccc(-c2cncnc2NC2CCNCC2)cc1`
Reply: 7.68

Task item: What does the record list as activity change, negative = inhibition for `COc1cccc(-c2nccc(-n3ccnc3)n2)c1` ?
Reply: 9.38

Task item: # get_value(readout='activity change, negative = inhibition', item= `COc1ncc2nc(-c3cccs3)c(=O)n(-c3ccccc3)c2n1` )
Reply: -4.36

Task item: Recorded activity change, negative = inhibition for `CS(=O)(=O)Nc1cccc(-c2cncnc2Nc2ccc(F)cc2)c1` , please?
Reply: -19.4

Task item: Param item = `CC(=O)N1CCC2(CCCN(C(c3ccccc3)c3ccccc3)C2)CC1` ; retrieve measured activity change, negative = inhibition.
Reply: -12.2

Task item: Any idea what its activity change, negative = inhibition is? The molecule is `Cc1cccc(CNc2ncnc3ccc(-c4ccccc4CN(C)C)cc23)c1`
Reply: -7.85

Task item: For `O=C(c1cc(C(F)(F)F)cc(C(F)(F)F)c1)N1CCC2(CCN(Cc3nccs3)CC2)CC1` , what is its reported activity change, negative = inhibition?
Reply: -2.3

---

- test-target: Glutathione peroxidase 1 (Homo sapiens)
- test-method-notes: Primary qHTS Assay for Inhibitors of Recombinant Selenoprotein Glutathione Peroxidase 1 (GPX1) (AID 1845191); note: nearly all actives have a fitted effect of over 65% in size
- setup-conditions: recombinant GPX1, GR-coupled NADPH fluorescence, 15 min; series mostly up to 48.8 µM
Inconclusive results are not listed. Activity calls are given as the source filed them. Calls follow the shape of the dose curve; as a rule, active = well fitted inhibition curve with a large enough effect; inconclusive = small, poorly fitted or top-dose-only effect; inactive = flat fitted curve, though single readings scatter.
property-label: outcome

Solved entries:
molecule	test-target	property-label	recorded-measurement
Cc1nc(NC(=O)N2CCC[C@H]2C(N)=O)sc1-c1csc(C(C)(C)C)n1	Glutathione peroxidase 1 (Homo sapiens)	outcome	inactive
O=C(O)CCCCN(CCc1ccccc1OCc1ccc(CCc2ccccc2)cc1)Cc1ccc(C(=O)O)cc1	Glutathione peroxidase 1 (Homo sapiens)	outcome	inactive
Cc1[nH]nc2ncc(C(=O)N3CCC[C@H]3c3ccc(Cl)cc3)cc12	Glutathione peroxidase 1 (Homo sapiens)	outcome	inactive
C=CC(=O)N1CC/C(=C\c2ccc(F)c([N+](=O)[O-])c2)C(=O)/C(=C/c2ccc(F)c([N+](=O)[O-])c2)C1	Glutathione peroxidase 1 (Homo sapiens)	outcome	inactive
C=C1/C(=C/C=C2\CCCC3(C)[C@@H]([C@H](C)/C=C/C=C/C(O)(CC)CC)CC[C@@H]23)C[C@@H](O)C[C@@H]1O (stereo partly drawn)	Glutathione peroxidase 1 (Homo sapiens)	outcome	inactive
C[C@]12CC[C@H](O)CC1=CC[C@@H]1[C@@H]2CC[C@]2(C)C(c3cccnc3)=CC[C@@H]12	Glutathione peroxidase 1 (Homo sapiens)	outcome	inactive
COc1ccc2c(c1)C(c1ccc(F)cc1)=C(CN1CCCC1)CO2	Glutathione peroxidase 1 (Homo sapiens)	outcome	inactive
COc1ccc(C(=O)N2CCN(C(=O)/C=C/c3ccc(Br)cc3)CC2)cc1	Glutathione peroxidase 1 (Homo sapiens)	outcome	inactive

Task item: Requested field: outcome. Item: `CN1C(=O)[C@@H](NC(=O)c2cc(Cc3ccccc3)on2)COc2ccccc21`
Reply: inactive

Task item: # outcome lookup, item `O=C(NO)c1cnc(NC2(c3cccc(F)c3)CCCCC2)nc1`
Reply: inactive

Task item: // lookup outcome for `O=c1oc2c(C3OCCCO3)c(O)ccc2c2c1CNCC2`
Reply: inactive

Task item: Any idea what outcome was measured for `COc1nc(OCc2cccc(-c3ccccc3)c2C)ccc1CNCCNC(C)=O` ?
Reply: inactive

Task item: Can you share its outcome? I mean this molecule: C[C@@H]1C(=O)OC2[C@H](O)[C@]34[C@H]5C[C@@H](C(C)(C)C)[C@]36[C@@H](OC(=O)[C@@H]6O)O[C@@]4(C(=O)O5)[C@]21O (stereo partly drawn)
Reply: inactive

Task item: Item under review: `C=C1C(=O)O[C@H]2C[C@H](C)C(/C=C/C(C)=O)=CC[C@H]12` . Reported outcome?
Reply: inactive

---

- test-target: Dual specificity protein kinase CLK4 (Homo sapiens) (UniProt Q9HAZ1)
- Sequence (Q9HAZ1 whole entry, looked up): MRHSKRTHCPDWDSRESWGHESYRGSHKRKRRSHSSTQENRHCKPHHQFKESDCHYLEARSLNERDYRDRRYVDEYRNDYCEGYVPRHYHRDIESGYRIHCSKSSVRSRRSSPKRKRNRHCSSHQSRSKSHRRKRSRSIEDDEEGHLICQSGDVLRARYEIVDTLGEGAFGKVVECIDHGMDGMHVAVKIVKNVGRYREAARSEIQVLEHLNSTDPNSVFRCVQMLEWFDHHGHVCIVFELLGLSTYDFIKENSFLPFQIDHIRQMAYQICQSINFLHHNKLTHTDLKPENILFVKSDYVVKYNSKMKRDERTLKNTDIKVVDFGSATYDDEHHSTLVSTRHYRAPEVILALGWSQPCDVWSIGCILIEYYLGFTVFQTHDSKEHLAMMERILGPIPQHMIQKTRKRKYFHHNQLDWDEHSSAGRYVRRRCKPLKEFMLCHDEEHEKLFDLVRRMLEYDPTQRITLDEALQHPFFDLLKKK
- test-method-notes: qHTS Assay for Inhibitors of CDC-like Kinase 4 (ADP-FP Assay) (AID 1795); note: nearly all actives have a fitted effect of over 60% in size
- setup-conditions: Transcreener ADP fluorescence polarization; series mostly up to 50 µM
Records with an inconclusive call do not appear. The source made the active and inactive calls. The call rests on the fitted dose curve; in most records, active means well fitted inhibition curve with a large enough effect; inconclusive means small, poorly fitted or top-dose-only effect; inactive means flat fitted curve, though single readings scatter.
In this exercise, the only acceptable responses are active, inactive

Task item: Assay result, entry `CN1CCN(c2ccnc(-c3ccoc3)n2)CC1` — outcome?
Reply: inactive

Task item: Recorded test outcome, item `O=c1c(-c2ccc(Cl)cc2)nc2cnc(N3CCNCC3)nc2n1Cc1cccs1`
Reply: inactive

Task item: Call for entry `CN(C)c1ncc2nc(-c3ccc(F)cc3)c(=O)n(Cc3cccs3)c2n1` :
Reply: inactive

Task item: GET /call?item= `CN(C)c1ncc2nc(-c3ccc(F)cc3)c(=O)n(Cc3ccc(F)cc3)c2n1` returns the recorded outcome of this test.
Reply: inactive

Task item: # lookup: test call for `CN(C)c1ncc2ncc(=O)n(CCc3ccccc3)c2n1`
Reply: active

Task item: Please share the test call associated with `Cc1cnc(CNc2ccnc(-c3ccccc3CN(C)C)n2)cn1` .
Reply: inactive

Task item: Fill in: this test's call for `COCCn1c(=O)cnc2cnc(N3CCN(C)CC3)nc21` is ___
Reply: inactive

Task item: What call does the record list for `CN(C)c1ncc2nc(-c3cc(F)cc(F)c3)c(=O)n(C[C@H]3CCCO3)c2n1` ?
Reply: inactive

Task item: Check the results log: what was the call for `COc1ccc(CNc2ncncc2-c2cccnc2)c(OC)c1` ?
Reply: inactive

Task item: Hi, sorry to bother you, what did the test record for `COCCn1c(=O)c(-c2ccc(Cl)cc2)nc2cnc(OCc3ccccc3)nc21` ?
Reply: inactive

Task item: Check the results log: what was the call for `Cn1cc(-c2nc3cnc(N4CCOCC4)nc3n(C3CC3)c2=O)c2ccccc21` ?
Reply: inactive
